Target: F508delCFTR (Homo sapiens, UniProt P13569, DEL508-508)
Construct: expressed in transfected cells; host or cells: CFBE41o- human lung-derived epithelial cells (CFBE4lo-F508delCFTR-HRP), doxycycline-inducible
Sequence (P13569 with tags, fused parts or gaps DEL508-508): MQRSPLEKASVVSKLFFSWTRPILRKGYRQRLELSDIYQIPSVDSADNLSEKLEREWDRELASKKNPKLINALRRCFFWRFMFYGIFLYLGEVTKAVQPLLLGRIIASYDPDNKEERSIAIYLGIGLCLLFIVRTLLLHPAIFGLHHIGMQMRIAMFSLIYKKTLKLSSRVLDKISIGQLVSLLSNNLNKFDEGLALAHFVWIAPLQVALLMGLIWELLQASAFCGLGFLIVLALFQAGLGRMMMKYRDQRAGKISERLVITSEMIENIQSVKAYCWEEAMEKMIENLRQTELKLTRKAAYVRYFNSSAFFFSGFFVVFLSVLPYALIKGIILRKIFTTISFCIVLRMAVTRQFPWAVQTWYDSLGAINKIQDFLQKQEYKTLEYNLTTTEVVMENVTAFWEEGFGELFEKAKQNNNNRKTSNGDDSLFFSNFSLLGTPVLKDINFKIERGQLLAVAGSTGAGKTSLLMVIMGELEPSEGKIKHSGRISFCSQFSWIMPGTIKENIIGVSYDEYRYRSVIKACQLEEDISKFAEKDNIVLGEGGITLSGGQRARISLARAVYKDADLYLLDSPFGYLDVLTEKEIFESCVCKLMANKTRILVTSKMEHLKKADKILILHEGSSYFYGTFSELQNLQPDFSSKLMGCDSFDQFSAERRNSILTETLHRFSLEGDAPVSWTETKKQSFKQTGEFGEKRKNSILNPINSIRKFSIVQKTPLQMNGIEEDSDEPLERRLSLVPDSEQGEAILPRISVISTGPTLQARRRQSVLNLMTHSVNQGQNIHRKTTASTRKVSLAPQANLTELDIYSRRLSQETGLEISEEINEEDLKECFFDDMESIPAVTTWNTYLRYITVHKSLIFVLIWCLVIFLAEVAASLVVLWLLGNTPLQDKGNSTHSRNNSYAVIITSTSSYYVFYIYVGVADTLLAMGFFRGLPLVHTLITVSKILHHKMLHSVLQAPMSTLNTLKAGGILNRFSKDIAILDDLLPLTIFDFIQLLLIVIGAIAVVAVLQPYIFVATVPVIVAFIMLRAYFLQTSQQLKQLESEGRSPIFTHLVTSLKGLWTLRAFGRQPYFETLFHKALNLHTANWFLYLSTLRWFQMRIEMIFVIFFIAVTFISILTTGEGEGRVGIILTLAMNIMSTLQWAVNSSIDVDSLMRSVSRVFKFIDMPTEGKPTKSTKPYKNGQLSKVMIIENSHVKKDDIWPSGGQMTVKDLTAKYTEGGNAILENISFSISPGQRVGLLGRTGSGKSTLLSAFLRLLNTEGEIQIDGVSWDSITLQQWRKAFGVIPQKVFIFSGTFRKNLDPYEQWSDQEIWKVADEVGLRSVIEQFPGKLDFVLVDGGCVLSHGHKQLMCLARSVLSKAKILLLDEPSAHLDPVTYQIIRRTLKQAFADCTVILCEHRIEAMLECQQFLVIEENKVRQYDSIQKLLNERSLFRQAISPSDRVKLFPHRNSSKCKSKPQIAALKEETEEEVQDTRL
Experiment: Cell Surface Expression-Horse Radish Peroxidase (CSE-HRP) Assay;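 note: percent of the 2 µM on-plate positive control corrector response above DMSO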
Type: cell-based
Conditions: without co-corrector; maximum at any tested concentration, normalized to on-plate positive control; read-out: Maximum % activity (without co-corrector)
Measured endpoint: Emax

Molecule	Recorded result
CC(C)(C)c1ccc(O)c(CN[C@H]2[C@H](C(C)(C)C)[C@@H](C(=O)O)N(C(=O)C3CCCCC3)[C@H]2c2ccccc2)c1 [Example I-80]	< 100%
COc1ccc(S(F)(F)(F)(F)F)cc1CN[C@H]1[C@H](C(C)(C)C)[C@@H](C(=O)O)N(C(=O)OC(C)C)[C@H]1c1cccnc1N(C)C [Example I-245]	> 200%
COc1ncc(C(F)(F)F)cc1CN[C@H]1[C@H](C(C)(C)C)[C@@H](C(=O)O)N(C(=O)C2CCCCC2)[C@H]1c1ccccc1 [Example 12]	100 to 200%
COc1ccc(C(C)(C)C)cc1CN[C@H]1[C@H](C(C)(C)C)[C@@H](C(=O)O)N(C(=O)C2CCCCN2S(C)(=O)=O)[C@H]1c1ccccc1 (some centres unmarked) [Example I-138]	> 200%
COc1ccc(C(C)(C)C)cc1CN[C@H]1[C@H](C(C)(C)C)[C@@H](C(=O)O)N(C(=O)OC2CCCC2)[C@H]1c1ccccc1 [Example I-119]	> 200%

---

Target: F508delCFTR (Homo sapiens, UniProt P13569, DEL508-508)
Construct: expressed in transfected cells; host or cells: CFBE41o- human lung-derived epithelial cells (CFBE4lo-F508delCFTR-HRP), doxycycline-inducible
Experiment: Cell Surface Expression-Horse Radish Peroxidase (CSE-HRP) Assay;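 note: percent of the 2 µM on-plate positive control corrector response above DMSO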
Format: cell-based
Conditions: CSE-HRP; without co-corrector; maximum at any tested concentration, normalized to on-plate positive control; read-out: Maximum % activity (without co-corrector)

Molecule	Emax
COc1cc(C#N)ccc1CN[C@@H]1[C@@H](C(C)(C)C)[C@H](C(=O)O)N(C(=O)C2CCCCC2)[C@@H]1c1ccccc1 (racemic)	< 100%
COc1ccc(C2CCCC2)cc1CN[C@H]1[C@H](C(C)(C)OC)[C@@H](C(=O)O)N(C(=O)C2CCCCC2)[C@H]1c1ccccc1	> 200%
COc1ncc(C2CC2)cc1CN[C@H]1[C@H](C(C)(C)C)[C@@H](C(=O)O)N(C(=O)C2CCCCC2)[C@H]1c1ccccc1	100 to 200%
